# Tested on: CCRF-CEM leukemia
# assay-method-text: NCI tumour cell line growth inhibition, 48 h
measure-name: GI50

Below: 4 molecules and their reported GI50.
INSERT INTO results (smiles_code, experimental_value) VALUES
  ('Cc1nc2sc(C(=O)Nc3ccccc3)c(N)c2cc1C(=O)c1ccccc1', '1.69 µM'),
  ('CCCCCCCCc1cc(O)ccc1O', '4.09 µM'),
  ('COc1cc2c(=O)n(CC3CCCCC3)c3c4cc[nH]c4ncc3c2cc1OC', '2.54 µM'),
  ('CN(C)CCOc1ccc2c(c1)C(=O)/C(=C\c1ncc([N+](=O)[O-])n1C)C2', '1.39 µM');

List GI50 for every entry below, keeping the order given.
1. C[C@@H]1Cc2c(ccc3[nH]ncc23)[C@@H](c2ccc(NC3CN(CCCF)C3)cn2)N1CC(F)(F)F
2. c1ccc(-c2cc3n4c(-c5ccccc5)nn(-c5ccccc5)c4cnc-3n2)cc1

Resp:
1. 21.1 µM
2. > 50 µM

Req: Form: Entry = CNc1nc(-c2ccc3c(N)n[nH]c3c2)cc(N2C[C@@H](C(=O)NC3CCCCC3)CC[C@H]2C)n1 | System = CCRF-CEM leukemia | GI50 = ____
Resp: 1.78 µM

====

# System: 786-0 renal
# assay-method-text: NCI tumour cell line growth inhibition, 48 h; in the data active means GI50 below about 0.43 µM; inactive means the rest
In this exercise, the only acceptable responses are label 1 = active, label 0 = inactive

INSERT INTO results (compound, class_assignment) VALUES
  ('CNc1nc(-c2ccc3c(N)n[nH]c3c2)cc(N2C[C@@H](C(=O)NC3CCCCC3)CC[C@H]2C)n1', 'label 0'),
  ('COc1ccc(C2C3=C(COC3=O)N(CCO)c3cc4c(cc32)CCC4)cc1 (configuration not stated)', 'label 0'),
  ('C=Cc1cc(OC)c2c(c1)c(=O)oc1c2cc(OC)c2c(O)ccc(C3OC(C(C)O)C(O)C3O)c21 (configuration not stated)', 'label 1');

Req: Which result was noted for this compound in the test: O=C(N/N=C/c1ccc(N(CCCl)CCCl)cc1)c1ccc(C(=O)N/N=C/c2ccc(N(CCCl)CCCl)cc2)cc1
Resp: label 0

Req: Please give the result for C1CC[N-]CC1.CC(=N\O)/C(C)=N/O.CC(=N\O)/C(C)=N/O.C[CH-]C(C)O.[Co+2] too.
Resp: label 0

Req: Please give the result for COc1ccc2c(c1)C=CC1C2CC[C@]2(C)C(NC(=O)/C=C/c3ccc(O)c(O)c3)CCC12 (some centres not stated) too.
Resp: label 0

Req: Please give the result for CCOC(=O)N(O)c1ccc(/C=C/c2ccccc2)cc1 too.
Resp: label 0

====

# Test system: RPMI-8226 leukemia
# assay-method-text: NCI tumour cell line growth inhibition, 48 h
Assignment: determine reported TGI for the given compounds.

Below: 3 compounds and their reported TGI.
INSERT INTO assay_data (compound, experimental_value) VALUES
  ('CC(=O)[O][Hg][c]1s[c]([Hg][O]C(C)=O)[c]([Hg][O]C(C)=O)[c]1[Hg][O]C(C)=O', '> 100 µM'),
  ('O=C1C=CC(=O)c2c(O)c(N(CCCl)CCCl)c(Cl)c(O)c21', '> 10 µM'),
  ('N=C1C=C(N)C(=O)c2ccccc21', '0.669 µM');

List TGI for every entry below, keeping the order given.
1. NC1=C(O)C(=O)C(c2c[nH]c3ccc(OCc4ccccc4)cc23)O1 (stereo not given)
2. O/N=C1\C(=C\c2ccc3c(c2)OCCO3)CCCC1C(NO)c1ccc2c(c1)OCCO2 (stereo not given)

Resp:
["> 100 µM", "> 100 µM"]
